Readings of EC50 for the listed compounds
# System: BJ
# Assay explanation: cells
# Assay type: functional, cell-based
# Experimental context: Homo sapiens
Calls of active or inactive are those of the source.

>  <Compound>
CCCCCCCCCC[n+]1cccc2c3ccccc3ccc21

>  <EC50>
11.8 µM (active)

$$$$
>  <Compound>
O=C(NC1CCCC1)C(c1ccc(F)cc1)N(Cc1ccccc1Cl)C(=O)CCl (centres undefined)

>  <EC50>
14.8 µM (active)

$$$$
>  <Compound>
COc1ccc(-[n+]2c(-c3ccccc3)cc(-c3ccccc3)cc2-c2ccccc2)cc1.[O-][Cl+3]([O-])([O-])[O-]

>  <EC50>
14.1 µM (active)

$$$$
>  <Compound>
CCNC(S)=NNC(=O)c1cc(-c2ccc(OCC)cc2)nc2ccccc12

>  <EC50>
3.3 µM (active)

$$$$

====

# Assayed system: Estrogen receptor beta (Homo sapiens)
# Sequence (Q92731 whole entry): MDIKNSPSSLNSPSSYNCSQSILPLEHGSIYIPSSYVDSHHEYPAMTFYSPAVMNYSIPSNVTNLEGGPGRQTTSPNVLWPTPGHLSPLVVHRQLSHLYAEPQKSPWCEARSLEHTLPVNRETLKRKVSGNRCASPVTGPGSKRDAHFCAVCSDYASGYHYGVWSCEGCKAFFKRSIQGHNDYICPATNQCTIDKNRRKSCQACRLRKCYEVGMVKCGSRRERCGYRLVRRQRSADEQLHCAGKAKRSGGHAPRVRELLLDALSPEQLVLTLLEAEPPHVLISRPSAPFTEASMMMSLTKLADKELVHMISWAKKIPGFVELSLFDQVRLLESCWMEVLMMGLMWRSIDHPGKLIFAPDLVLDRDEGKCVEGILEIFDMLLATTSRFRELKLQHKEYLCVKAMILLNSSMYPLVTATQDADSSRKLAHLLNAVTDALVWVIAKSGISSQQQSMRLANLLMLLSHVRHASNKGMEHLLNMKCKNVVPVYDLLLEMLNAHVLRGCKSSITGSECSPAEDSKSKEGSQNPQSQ
# Assay explanation: ERβ–SRC-3 coactivator interaction inhibitors, confirmation, orthogonal assay, biochemical, ELISA, streptavidin-HRP readout (AID 1060)

>  <Molecule>
O=C1NC(c2ccc(Br)cc2)Nc2sc3c(c21)CCC3 (centres undefined)

>  <IC50>
< 0.023 µM (not active)

$$$$
>  <Molecule>
Cc1onc(-c2ccccc2Cl)c1C(=O)NCc1ccco1

>  <IC50>
> 50 µM (not active)

$$$$
>  <Molecule>
Cc1ccnc(NS(=O)(=O)c2ccc(NC(=O)Cc3cccs3)cc2)n1

>  <IC50>
> 109 µM (not active)

$$$$
>  <Molecule>
Cc1ccc(C)c(SCC(=O)OCC(=O)c2ccco2)c1

>  <IC50>
0.0912 µM (not active)

$$$$

====

# Assayed system: DNA repair protein RAD52 homolog (Homo sapiens, UniProt P43351)
# Sequence (P43351 whole entry): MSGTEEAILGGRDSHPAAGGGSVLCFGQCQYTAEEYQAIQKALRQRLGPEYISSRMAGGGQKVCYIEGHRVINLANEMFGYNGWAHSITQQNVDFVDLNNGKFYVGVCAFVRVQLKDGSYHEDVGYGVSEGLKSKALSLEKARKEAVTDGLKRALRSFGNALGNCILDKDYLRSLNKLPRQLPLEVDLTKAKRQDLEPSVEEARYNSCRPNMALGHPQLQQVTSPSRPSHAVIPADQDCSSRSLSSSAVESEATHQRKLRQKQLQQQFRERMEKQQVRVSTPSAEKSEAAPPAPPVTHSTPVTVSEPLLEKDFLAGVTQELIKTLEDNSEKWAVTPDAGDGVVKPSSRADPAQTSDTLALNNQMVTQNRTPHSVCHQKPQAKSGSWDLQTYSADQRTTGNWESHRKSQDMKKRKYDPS
# Assay type: functional, biochemical
Calls of active or inactive are those of the source.
Measured parameter: AC50

>  <Smiles text>
CCCNc1nc(Cl)nc(NCc2cccnc2)n1

>  <Observed value>
4.26 µM (active)

$$$$
>  <Smiles text>
N=c1c(C(=O)NCCN2CCOCC2)cc2c(=O)n3ccccc3nc2n1CCCN1CCOCC1

>  <Observed value>
5.36 µM (active)

$$$$
>  <Smiles text>
Cc1ccc(C(=O)c2oc3ccc(Cl)cc3c2NC(=O)CN2CCN(C)CC2)cc1

>  <Observed value>
5.97 µM (active)

$$$$
>  <Smiles text>
CCCCCCCCCC[n+]1cccc2c3ccccc3ccc21

>  <Observed value>
6.58 µM (active)

$$$$
>  <Smiles text>
Cc1ccc2nc(-c3ccc(NC(S)=NC4CC(C)(C)NC(C)(C)C4)cc3)sc2c1

>  <Observed value>
4.95 µM (active)

$$$$
>  <Smiles text>
COc1ccc(C(N)=S)c(OC)c1

>  <Observed value>
9.26 µM (active)

$$$$
>  <Smiles text>
CCCN(CCC)CCNC(=O)c1cc2c(-c3ccc(Cl)cc3)nn(C)c2s1

>  <Observed value>
14.5 µM (active)

$$$$
